- ASSAYED TARGET: W236L-Q2/Q3 channels (Homo sapiens, UniProt O43525+O43526, W236L)
- ASSAY: Two-electrode voltage-clamp of W236L-Q2/Q3 mutant channels in Xenopus oocytes
- Type: cell-based
- STUDY CONDITIONS: EC50, W236L-Q2/Q3; calculated from dose responses
PROPERTY NAME: EC50 (µM)
Numeric answer only, unit µM assumed.

Please fill in: EC50 reported for "CC(=O)c1c(O)c(C)c(O)c(Cc2c(O)c3c(c(C(=O)/C=C/c4ccccc4)c2O)OC(C)(C)C=C3)c1O" = 27

----------
- ASSAYED TARGET: KCNQ2/3 channels (Homo sapiens, UniProt O43525+O43526)
- ASSAY: Two-electrode voltage-clamp of KCNQ2/3 channels expressed in Xenopus laevis oocytes
- Assay type: cell-based
- STUDY CONDITIONS: KCNQ2/3; 1 µM
Each entry below carries its reported Non-normalized tail current V0.5.
Numeric answer only, unit mV assumed.

Please fill in: Non-normalized tail current V0.5 reported for Oc1ccccc1S [2-Mercaptophenol, 2-mercaptophenol] = -43.2

Please fill in: Non-normalized tail current V0.5 reported for CCOC(=O)Nc1ccc(NCc2ccc(F)cc2)cc1N [Retigabine, retigabine, reference compound] = -41.7

Please fill in: Non-normalized tail current V0.5 reported for CCCCCCCC/C=C\CCCCCCCC(N)=O [Oleamide, oleamide] = -41.6

Please fill in: Non-normalized tail current V0.5 reported for O=C(O)/C=C/CC(=O)O [Glutaconic Acid, glutaconic acid] = -41.5

Please fill in: Non-normalized tail current V0.5 reported for CCCCCCCCCCCCCCCC(=O)O [Palmitic Acid, palmitic acid] = -45.6

Please fill in: Non-normalized tail current V0.5 reported for CC(=O)c1c(O)c(C)c(O)c(Cc2c(O)c3c(c(C(=O)/C=C/c4ccccc4)c2O)OC(C)(C)C=C3)c1O [MTX, mallotoxin] = -44.4

----------
Each entry below carries its reported Normalized tail current V0.5.
- ASSAYED TARGET: KCNQ2/3 channels (Homo sapiens, UniProt O43525+O43526)
- ASSAY: Two-electrode voltage-clamp of KCNQ2/3 channels expressed in Xenopus laevis oocytes
- Format: cell-based
- STUDY CONDITIONS: KCNQ2/3; 100 µM
- From the text: cRNA transcripts encoding human KCNA1, KCNQ1, KCNQ2, KCNQ3, KCNQ4, or KCNQ5 were generated by in vitro transcription using the T7 polymerase message machine kit (Thermo Fisher Scientific), after vector linearization, from cDNA sub-cloned into plasmids incorporating X. laevis β-globin 5′ and 3′ UTRs flanking the coding region to enhance translation and cRNA stability. cRNA was quantified by spectrophotometry. […]
Numeric answer only, unit mV assumed.

# example entries with known answers
COMPOUND: C/C=C/C=C/C(=O)O
ASSAYED TARGET: KCNQ2/3 channels (Homo sapiens, UniProt O43525+O43526)
OBSERVED RESULT: -39.9

COMPOUND: CCC1=C(O)C(=O)CC1 [3-ethyl-2-hydroxy-2-cyclopenten-1-one]
ASSAYED TARGET: KCNQ2/3 channels (Homo sapiens, UniProt O43525+O43526)
OBSERVED RESULT: -41.0

COMPOUND: CCCCCCCC/C=C\CCCCCCCC(N)=O [Oleamide, oleamide]
ASSAYED TARGET: KCNQ2/3 channels (Homo sapiens, UniProt O43525+O43526)
OBSERVED RESULT: -41.5

Below: the item to evaluate.
Please fill in: Normalized tail current V0.5 reported for "Oc1ccccc1S" = -29.5
